Each item that follows carries a reported log(1/C).
- Species on record: Mus musculus
- assay summary: Analgesic activity in mouse by hot-plate method
- Assay type: functional
property name: log(1/C)

INSERT INTO measurements (compound, property_name, data_value) VALUES
  ('CC[C@@]12CCN(C)C(Cc3ccc(OC)cc31)[C@@H]2O (mixture of isomers)', 'log(1/C)', 0.99),
  ('CN1CC[C@H]2CC1Cc1ccccc12 (mixture of isomers)', 'log(1/C)', 1.3),
  ('COc1ccc2c(c1)[C@@]1(c3ccccc3)CCN(C)C(C2)[C@H]1C', 'log(1/C)', 2.14),
  ('CC[C@H]1C2Cc3ccc(O)cc3[C@@]1(CC)CCN2C (stereo in doubt; 93)', 'log(1/C)', 1.51),
  ('CN1CC[C@H]2CC1Cc1ccc(O)cc12 (stereo in doubt; 46)', 'log(1/C)', 1.72),
  ('CCC[C@@H]1C2Cc3ccc(O)cc3[C@@]1(CCC)CCN2C (mixture of isomers)', 'log(1/C)', 2.88),
  ('CC[C@@]12CCN(C)C(Cc3ccc(O)cc31)C2 (stereo in doubt; 99)', 'log(1/C)', 1.03);

Where do the numbers come from? From ChEMBL document CHEMBL3272144.
